TGT: Nuclear receptor subfamily 1 group I member 3 (Homo sapiens)
PROTOCOL: qHTS assay to identify small molecule antagonists of the constitutive androstane receptor (CAR) signaling pathway (AID 1224838);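 further: HepG2 cells stably expressing hCAR with CYP2B6 luciferase reporter stimulated by CITCO; nearly all actives have a fitted effect of over 40% in size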
MEASUREMENT CONDITIONS: HepG2-CYP2B6-hCAR luciferase, CITCO-stimulated, 24 h; series mostly up to 92.4 µM
Inconclusive results are not listed. Activity calls are given as the source filed them. The call rests on the fitted dose curve; in most records, active means well fitted inhibition curve with a large enough effect in the repeat runs; inconclusive means weak or mixed curves, or effect the other way; inactive means no such curve, though single readings can be large or run the other way.
Possible outcomes: active, inactive

>>> category("Cc1ccc(O)cn1")
"inactive"
>>> category("CCOC(=O)CN")
"inactive"
>>> category("O=C1OC(=O)c2ccc3c4c(ccc1c24)C(=O)OC3=O")
"inactive"
>>> category("CCOC(=O)C1=C(C)NC(C)=C(C(=O)OCC)C1c1ccccc1/C=C/C(=O)OC(C)(C)C")
"inactive"
>>> category("CC(C)=CCCC(C)CCOC(=O)C(C)C (stereo not given)")
"inactive"
>>> category("C/C=C/CO")
"inactive"
>>> category("Cc1nc(Nc2ncc(C(=O)Nc3c(C)cccc3Cl)s2)cc(N2CCN(CCO)CC2)n1")
"active"
>>> category("CC(=O)C=O")
"inactive"
>>> category("NCCCCCCNCCCCCCN")
"inactive"
>>> category("CCCCCCOc1cc(C)c(O)c(C)c1C")
"inactive"
>>> category("Cn1cnc2ncnc(N)c21")
"inactive"
>>> category("c1ccc(Nc2cccc3ccccc23)cc1")
"inactive"
>>> category("ClC/C=C\\CCl")
"inactive"
>>> category("CCC(=O)OCCc1ccccc1")
"inactive"
>>> category("SCCCCCCCCS")
"inactive"

* * *

PROTOCOL: qHTS assay to identify small molecule agonists of the sonic hedgehog signaling (Shh) pathway - cell viability counter screen (AID 1259366); further: nearly all actives have a fitted effect of over 50% in size
MEASUREMENT CONDITIONS: NIH/3T3 Gli1-Luc viability, CellTiter-Fluor, 24 h; series mostly up to 92.4 µM
Inconclusive results are not listed. Activity calls are given as the source filed them. The call rests on the fitted dose curve; in most records, active means well fitted cell-killing curve with a large enough effect in the repeat runs; inconclusive means weak or mixed curves, or effect the other way; inactive means flat fitted curve, though single readings scatter.
Labels: Yes = active, No = inactive

>>> category("C=C(C)C(=O)OCCC[Si](Cl)(Cl)Cl")
"No"
>>> category("CC(C)=C1CC[C@@H](C)CC1=O")
"No"
>>> category("CCCCCCCC/C=C/CCCOC(C)=O")
"No"
>>> category("CC(C)(c1cc(Br)c(O)c(Br)c1)c1cc(Br)c(O)c(Br)c1")
"No"
>>> category("CCCCCCCOC(=O)c1ccccc1C(=O)OCCCCCCC")
"No"
>>> category("CCCCCCCC/C=C\\CCCCCCCC(=O)N(C)CC(=O)O")
"No"
>>> category("CCC1(c2cnc[nH]2)Cc2ccccc2C1")
"No"
>>> category("CC(=O)Oc1ccc(C2(c3ccc(OC(C)=O)cc3)Oc3ccccc3NC2=O)cc1")
"No"
>>> category("CCOC(=O)N1CCC(=C2c3ccc(Cl)cc3CCc3cccnc32)CC1")
"Yes"
>>> category("C[Si](C)(C)Cl")
"No"
>>> category("COC(=O)CC#N")
"No"
>>> category("CC(C)=CC1CC(C)CCO1 (centres undefined)")
"No"
>>> category("CCc1cccc(C)c1")
"No"
>>> category("CS(C)(=O)=O")
"No"

* * *

PROTOCOL: qHTS assay to identify small molecule agonists of the endoplasmic reticulum stress response signaling pathway - cell viability counter screen (AID 1159517); further: nearly all actives have a fitted effect of over 50% in size
MEASUREMENT CONDITIONS: ESRE-bla HeLa viability, CellTiter-Glo luminescence, 5 h; series mostly up to 61 µM
Inconclusive results are not listed. Active and inactive are the calls of the source. Calls come from the whole dose curve.
Possible outcomes: label 1 (active), label 0 (inactive)

>>> category("CC(COC(=O)c1ccccc1)OC(=O)c1ccccc1 (configuration not stated)")
"label 0"
>>> category("Clc1ccc(C(Cn2ccnc2)OCc2ccsc2Cl)c(Cl)c1 (configuration not stated)")
"label 0"
>>> category("CCC(C)(C)c1cc(O)c(C(C)(C)CC)cc1O")
"label 0"
>>> category("CCCCCCCOC(=O)c1ccc(O)cc1")
"label 1"
>>> category("CN(C)c1ccc(N=NS(=O)(=O)O)cc1")
"label 0"
>>> category("CCCCCCCCCCCC(=O)N(CC)CC")
"label 0"
>>> category("COc1ccc2sc(C(=O)Nc3nnn[nH]3)c(OC(C)C)c2c1")
"label 1"

Source of measurements: PubChem BioAssay (Tox21)
